// provenance: PubChem BioAssay (NCI)

- Test system: OVCAR-8 ovarian
- PROTOCOL_NOTES: NCI-60 one-dose screen, 48 h (100 = growth as untreated, 0 = no growth, -100 = all killed)
- ASSAY_CONTEXT: 10 µM unless noted
This is part of a sample that, as a whole, favours compounds with a hit. Of some 83,000 tested, about 20% had one in any assay.
Reported growth is given for each of the following compounds.
Please give a number only; it is taken to be in %.

Recorded growth, per entry:
• CCCCCCCCCCCCCCn1cc(C2=C(c3coc4ccc(OC)cc34)C(=O)NC2=O)c2ccccc21 = 91.8
• COc1cc(/C=C/C(=O)c2ccc(Cl)cc2)cc(CN2CCCCC2)c1O = 89.3

Ask | Recorded growth for Cc1ccc2c(n1)C(=O)C(Oc1ccc(Br)cc1)=CC2=O with OVCAR-8 ovarian, please?
Reply | 92.3

---

- Test system: OVCAR-5 ovarian
- PROTOCOL_NOTES: NCI-60 one-dose screen, 48 h
- ASSAY_CONTEXT: 10 µM unless noted
About 83,000 compounds went through this panel and 20% of them were active in at least one assay; those are over-represented in the sample as a whole. Active and inactive are the calls of the source. Rule for the calls: active = growth percent below 10; inactive = the rest.
Allowed answers: active, inactive

* CSc1nc2c(c(=O)n1C)N=C1c3ccccc3C(=O)C1C(c1ccccc1)N2 (configuration not stated) | inactive
* COc1cc(/C=C2\CN(S(=O)(=O)c3ccccc3)C/C(=C\c3cc(CN4CCCC4)c(O)c(OC)c3)C2=O)cc(CN2CCCC2)c1O | active
* CCN1C(=O)N(CC)C2Nn3c(s/c(=C\c4ccccc4F)c3=O)=NC21 (configuration not stated) | inactive
* COc1ccc(-c2nsc3c2NC(=O)CC3c2ccsc2)cc1 (configuration not stated) | inactive
* CN=c1ccc2nc3ccc(N)cc3sc-2c1 | inactive

Ask | In this assay, the call recorded for O=C(Nc1ccc(I)cc1F)c1cc(F)ccc1O was what?
Reply | inactive

Ask | Field: outcome | Entry: CCOC(=O)C1(C(=O)OCC)N=C(c2ccccc2)C=C1c1ccccc1
Reply | inactive

Ask | What call does the record list for O=C1C(=O)c2c(ccc3ccccc23)-c2ccccc21 ?
Reply | active

Ask | Returns: the outcome recorded for CC1(O)COCCCCOc2c(CN)cccc2NC(=O)c2nc(cnc2N)-c2ccc(cc2)S(=O)(=O)C(C)(C)C1 (configuration not stated) in this assay.
Reply | active

Ask | Query: recorded result category for COc1ccc(Br)c(/C=C2\SC(=Nc3ccc(O)cc3)NC2=O)c1 in this test
Reply | inactive

Ask | Identify the outcome logged in this assay for the compound shown: Nc1n[nH]c2ccc([C@@H]3Nc4ccc5[nH]ncc5c4[C@H]4[C@H]5CCC(C5)[C@H]43)cc12
Reply | inactive

Ask | Write down the call the test reported for this compound. Item: Cc1cc(OC(=O)c2ccc([N+](=O)[O-])cc2)nc2[nH]c(=O)sc12
Reply | inactive

---

- Tested on: NCI-H522 lung
- PROTOCOL_NOTES: NCI-60 one-dose screen, 48 h (100 = growth as untreated, 0 = no growth, -100 = all killed)
- ASSAY_CONTEXT: 10 µM unless noted
- Protocol: Growth inhibition of the NCI-H522 human Non-Small Cell Lung tumor cell line is measured as a screen for anti-cancer activity. Cells are grown in 96 well plates and exposed to the test compound for 48 hours. Compounds are tested at a single concentration, which is 10^-5 M for most compounds. The reported endpoint is percent growth (GI% or GIPRCNT), where numbers from 0 - 100% represent growth inhibition, and numbers from -100% - 0 represent cell death. […]
The panel holds about 83,000 compounds, 20% with a hit somewhere; the sample as a whole holds those more often.
Label satisfied when growth is at or above -20%; otherwise label not satisfied.

Some entries whose results are on file:
* CCCC(=O)CC(C)=O.CCCC(=O)CC(C)=O.[Cu] | satisfied
* O=C(CCc1nnc2sc(Cc3ccccc3Cl)nn12)c1nc2ncccc2[nH]1 | satisfied
* Cc1ccc(CN2CCC(C(=O)Nc3ccc(-c4cc5ccccc5[nH]4)cc3)CC2)o1 | satisfied
* COc1cc(C2C(C#N)=C(N)OC3=C2C(=O)c2ccccc2C3=O)cc(OC)c1OC (stereo not drawn) | satisfied
* Cc1nc2ccccc2c(/C=C/c2ccc(F)cc2)c1C(N)=O | satisfied
* NC(CCl)=NCCC[C@H](N)C(=O)O | satisfied
* Cc1nc(Nc2cn[nH]c2C(=O)Nc2ccc(CN3CCN(C)CC3)cc2)c2ccsc2n1 | satisfied
* Cc1cccc2c(=O)c3c(sc12)c(NCCN)nc1ccccc13 | not satisfied
* CCOc1cc(Cl)c(C(C)NC(=O)c2cccc(OC)c2)cc1OCC (stereo not drawn) | not satisfied
* COc1ccc(-c2nc(N3CCN(C(=O)C4CCCCC4)CC3)c3c4c(sc3n2)CCCC4)cc1 | not satisfied

Ask | Could you please find out whether CCOC(=O)c1c2c(c(C)n1Cc1ccc(OC)cc1)-c1oncc1CC2 has growth that meets -20% or exceeds it?
Reply | satisfied

Ask | Hi, just wondering whether Cc1ccc2[nH]c(=O)cc(-n3nncc3Cn3c4ccccc4c4ccccc43)c2c1 shows growth of -20% or higher.
Reply | satisfied

Ask | Check this compound for growth at or above -20%: COC(=O)c1cc2c(n1Cc1ccccc1)-c1oncc1CCC2
Reply | satisfied

---

- Test system: RPMI-8226 leukemia
- PROTOCOL_NOTES: NCI-60 one-dose screen, 48 h (100 = growth as untreated, 0 = no growth, -100 = all killed)
- ASSAY_CONTEXT: 10 µM unless noted
About 83,000 compounds went through this panel and 20% of them were active in at least one assay; those are over-represented in the sample as a whole.
MEASURE_NAME: growth (%)
I only need the number, in %, no unit after it.

• O=C(Nc1ccc(-c2nc3cc4ccccc4cc3[nH]2)cc1)c1cccc(Br)c1 = 23
• Cc1ccc(N=NC2C(=O)N(c3ccc(Cl)cc3)N(c3ccc(Cl)cc3)C2=O)cc1 = 78.1

Proceed to the following item.
Ask | Record request: growth value, item CCOC(=O)c1c2c(n3cccc(Cl)c13)C(=O)c1ncccc1C2=O
Reply | 61.2

---

- System: SF-295 CNS
- PROTOCOL_NOTES: NCI-60 one-dose screen, 48 h (100 = growth as untreated, 0 = no growth, -100 = all killed)
- ASSAY_CONTEXT: 10 µM unless noted
This is part of a sample that, as a whole, favours compounds with a hit. Of some 83,000 tested, about 20% had one in any assay. The source made the active and inactive calls. How the source made its calls: active means growth percent below 10; inactive means the rest.
MEASURE_NAME: growth

Some molecules with known growth results, for comparison:
- Fc1ccc(Oc2ccc(Nc3ncnc4onc(-c5ccccc5)c34)cc2)cc1: 99.7% (inactive)
- COc1cc(/C=C2\CN(C)C/C(=C\c3cc(CN4CCCC4)c(O)c(OC)c3)C2=O)cc(CN2CCCC2)c1O: 100% (inactive)

Ask | Entry under review: O=C(Nc1ccc(N2CCNCC2)cn1)c1[nH]ncc1Nc1ncnc2sc3c(c12)CCC3 . Reported growth?
Reply | 104% (inactive)

---

Measured growth, listed per entry for reference.
- Tested on: UACC-62 melanoma
- PROTOCOL_NOTES: NCI-60 one-dose screen, 48 h (100 = growth as untreated, 0 = no growth, -100 = all killed)
- ASSAY_CONTEXT: 10 µM unless noted
The panel holds about 83,000 compounds, 20% with a hit somewhere; the sample as a whole holds those more often.
Report the value in % with no unit label.

Example entries begin here.
• O=C(/C=C/c1cccc(Cl)c1)OCc1ccc2cc1OCC#C/C=C\C#CCO2 = 89.2
• CCOc1ccc2nc(C)cc(Nc3ccc(Br)cc3)c2c1 = 103
• C=C[C@@H]1CCC/C=C/[C@@H]2C[C@H](O)C[C@H]2[C@H](O)/C=C/C(=O)O1 = 22.1
• Cc1nc(Nc2ccccn2)sc1C(=O)/C=C/c1ccc(Cl)cc1 = 48.2
• COc1ccc(C)c2sc(N(Cc3cccnc3)C(=O)c3ccc(C#N)cc3)nc12 = -33.3

Ask | Quick one: growth for COc1cccc(C(=O)Cn2cc(/C=C(\C#N)S(=O)(=O)c3ccccc3)c3ccccc32)c1 ?
Reply | 87.5

Ask | Given the compound COc1ccc(/C=C/C(=O)c2ccc3cc(OC)c(OC)cc3c2)cc1OC , what is its reported growth?
Reply | 57.6

Ask | I'd like to know its growth. The compound in question is CN(C)/C=C1\SC(=Nc2ccc(Cl)cc2)NC1=O
Reply | 95.2

Ask | Which growth value belongs to CCCCc1c(CCC)c(=N)c2ccccc2n1C ?
Reply | 97.9

---

- Test system: SK-MEL-2 melanoma
- PROTOCOL_NOTES: NCI-60 one-dose screen, 48 h (100 = growth as untreated, 0 = no growth, -100 = all killed)
- ASSAY_CONTEXT: 10 µM unless noted
This is part of a sample that, as a whole, favours compounds with a hit. Of some 83,000 tested, about 20% had one in any assay.
Label criterion met when growth < 80%; otherwise criterion not met.

Example cases with answers are listed next.
• CSc1nc2c(c(=O)[nH]1)N=C1c3ccccc3C(=O)C1C(c1ccccc1)N2 (stereo not drawn) = criterion met
• CCOc1ccc2c(c1)CN(Cc1ccc(Cl)cc1)CO2 = criterion met
• O=c1oc2ccc(I)cc2c(=O)n1-c1ccc(I)cc1F = criterion met
• Nc1ccc(-c2nn3c(CCC(=O)c4nc5ncccc5[nH]4)nnc3s2)c(O)c1 = criterion not met
• CCC1=C[C@]2(C3CC(=O)N(c4ccccc4)C3=O)CC(C(C)(C)C)C[C@@H]2[C@@H]2C(=O)N(c3ccccc3)C(=O)[C@H]12 (stereo partly drawn) = criterion not met
• COc1ccc(-c2nsc3c2NC(=O)CC3c2cccc(OC)c2)cc1 (stereo not drawn) = criterion met
• O=C(CN1C=NC2C(N3CCOCC3)=NC=NC21)c1ccc(Br)cc1 (stereo not drawn) = criterion not met
• O=c1oc2ccc(F)cc2c(=O)n1-c1ccc(F)cc1F = criterion met

Ask | Could you please tell me whether growth recorded for Cc1nc(Nc2ccccn2)sc1C(=O)/C=C/c1ccc(Cl)cc1 is less than 80%?
Reply | criterion met

Ask | growth under 80%? Item: O=C(Nc1ccccc1O)c1ccc(-c2ccc(Cl)cc2Cl)o1
Reply | criterion not met

Ask | In plain terms, does CC(C)CCOc1ccc(-c2n[nH]c(C(F)(F)F)c2-c2cncc(C#N)c2)c(O)c1 come in under 80% for growth?
Reply | criterion met

Ask | Regarding COc1cc(/C(C#N)=C/c2nc3c(N4CCOCC4)nc(Cl)nc3n2C)cc(OC)c1OC , kindly confirm whether its growth is beneath 80%.
Reply | criterion met

Ask | Dear reviewer, please state whether CN1C(=O)N(C)C2Nn3c(s/c(=C\c4ccc(Cl)cc4Cl)c3=O)=NC21 (stereo not drawn) has growth strictly beneath 80%.
Reply | criterion not met

Ask | Hi there! Is growth for O=C(Nc1ccc(F)cc1F)c1cc(I)ccc1O below 80%, do you know?
Reply | criterion met

Ask | Determine whether this compound shows growth lower than 80% (ties excluded): CCCCC1CCc2cccc3c(SCC(=O)N(C)c4ccc(Cl)cc4)cc[n+]1c23 (stereo not drawn)
Reply | criterion not met

Ask | Consider NC(=O)CSc1nc(-c2ccc(F)cc2)cc(-c2ccco2)n1 . Does its growth lie strictly below 80%?
Reply | criterion not met
